Value source: patent US9878986B2

target: HDAC1 (Homo sapiens, UniProt Q13547); assay: Test of HDAC activities, HDAC1 Fluorimetric Drug Discovery Assay Kit; format: biochemical; set-up: purchased Enzolifesciences BML-AK511; settings: samples at 100, 1000, 10000 nM; 37° C. 60 minutes; fluorescence Ex 390, Em 460; read-out: HDAC inhibitory activities, HDAC1
Sequence (Q13547 whole entry): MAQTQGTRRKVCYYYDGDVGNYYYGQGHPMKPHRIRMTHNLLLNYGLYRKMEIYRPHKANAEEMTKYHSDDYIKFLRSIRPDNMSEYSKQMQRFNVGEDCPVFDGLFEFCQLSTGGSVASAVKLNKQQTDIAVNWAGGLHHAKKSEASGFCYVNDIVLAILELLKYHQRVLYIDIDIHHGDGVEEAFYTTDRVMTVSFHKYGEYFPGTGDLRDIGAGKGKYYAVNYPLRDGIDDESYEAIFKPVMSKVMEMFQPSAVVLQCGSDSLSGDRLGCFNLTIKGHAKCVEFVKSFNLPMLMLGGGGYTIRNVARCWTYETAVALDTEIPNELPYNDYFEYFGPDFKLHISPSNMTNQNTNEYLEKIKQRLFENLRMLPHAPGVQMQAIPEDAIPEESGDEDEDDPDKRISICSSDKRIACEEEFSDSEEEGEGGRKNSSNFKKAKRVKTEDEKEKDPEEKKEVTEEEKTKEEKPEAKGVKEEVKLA
Property Label: IC50 (nM)

INSERT INTO assay_data (molecular_string, test_result) VALUES
  ('O=C(NO)c1ccc(CN(C(=O)N2CCOCC2)c2cccc(-c3ccc4c(c3)OCCO4)c2)cc1', 302),
  ('O=C(NO)c1ccc(CN(C(=O)N2CCOCC2)c2cccc(C3=CCOCC3)c2)cc1', 453);

(I) O=C(NO)c1ccc(CN(C(=O)N2CCCCC2)c2ccc(F)c(Cl)c2)cc1
(II) CC1CCN(C(=O)N(Cc2ccc(C(=O)NO)cc2)c2ccc(Cl)c(C(F)(F)F)c2)CC1
Query: Parameter metric = IC50. Return the lower-valued option from I and II . Identify your selection by its label.
Result: I
(I: 1270 nM, II: 6220 nM)

---

biological target: HDAC 6 (Homo sapiens); assay: Test of HDAC activities, HDAC6 (fluorimetric); format: biochemical; parameters: purchased Calbiochem 382180; conditions: samples at 0.1, 1, 10, 100, 1000 nM; 37° C. 60 minutes; fluorescence Ex 390, Em 460; read-out: HDAC inhibitory activities, HDAC6
Sequence (Q9UBN7 whole entry): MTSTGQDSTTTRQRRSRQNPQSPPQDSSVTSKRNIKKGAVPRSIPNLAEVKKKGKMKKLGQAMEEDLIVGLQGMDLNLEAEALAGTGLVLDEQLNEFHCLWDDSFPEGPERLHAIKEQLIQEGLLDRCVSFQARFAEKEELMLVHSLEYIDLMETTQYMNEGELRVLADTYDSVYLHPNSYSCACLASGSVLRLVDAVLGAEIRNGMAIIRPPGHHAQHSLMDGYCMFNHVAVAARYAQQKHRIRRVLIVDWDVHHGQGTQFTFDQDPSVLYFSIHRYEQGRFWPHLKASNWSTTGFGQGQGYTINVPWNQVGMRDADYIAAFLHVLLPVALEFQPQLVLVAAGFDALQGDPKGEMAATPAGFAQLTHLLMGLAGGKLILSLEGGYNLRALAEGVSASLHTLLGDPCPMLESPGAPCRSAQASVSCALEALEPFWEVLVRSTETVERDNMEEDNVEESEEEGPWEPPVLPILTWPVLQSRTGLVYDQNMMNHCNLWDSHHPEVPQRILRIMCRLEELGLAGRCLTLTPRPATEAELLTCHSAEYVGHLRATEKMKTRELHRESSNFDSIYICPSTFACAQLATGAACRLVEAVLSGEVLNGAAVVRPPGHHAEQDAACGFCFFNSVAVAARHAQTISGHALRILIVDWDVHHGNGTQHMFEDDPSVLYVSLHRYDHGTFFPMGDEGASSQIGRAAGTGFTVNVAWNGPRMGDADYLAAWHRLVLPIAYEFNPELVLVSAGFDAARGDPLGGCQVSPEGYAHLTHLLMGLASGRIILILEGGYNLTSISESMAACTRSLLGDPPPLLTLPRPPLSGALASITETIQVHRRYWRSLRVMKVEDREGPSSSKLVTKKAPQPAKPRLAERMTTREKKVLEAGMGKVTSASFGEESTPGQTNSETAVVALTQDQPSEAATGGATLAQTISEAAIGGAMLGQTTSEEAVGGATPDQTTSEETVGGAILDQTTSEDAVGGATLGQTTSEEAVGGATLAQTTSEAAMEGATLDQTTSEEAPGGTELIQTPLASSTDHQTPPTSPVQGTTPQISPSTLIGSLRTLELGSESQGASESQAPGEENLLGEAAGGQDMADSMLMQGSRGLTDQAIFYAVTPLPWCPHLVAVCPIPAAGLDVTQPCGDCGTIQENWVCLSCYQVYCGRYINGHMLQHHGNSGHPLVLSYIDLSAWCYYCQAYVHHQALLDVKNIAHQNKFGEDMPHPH
Where a name gives a salt, the structure may show the parent alone.
Property Label: IC50 (nM)

Study these solved cases before continuing.
INSERT INTO assay_data (compound, test_result) VALUES
  ('CCN1CCN(C(=O)N(Cc2ccc(C(=O)NO)cc2)c2ccc(F)c(Cl)c2)CC1', 7),
  ('O=C(NO)c1ccc(CN(C(=O)N2CCC(O)(c3ccccc3)CC2)c2cccc(-c3ccc4c(c3)OCO4)c2)cc1', 9),
  ('O=C(NO)c1ccc(CN(C(=O)N2CCOCC2)c2cccc(-c3ccoc3)c2)cc1', 3),
  ('O=C(NO)c1ccc(CN(C(=O)N2CCCCC2)c2ccc(F)c(Cl)c2)cc1', 3),
  ('CC(C)NC(=O)N1CCC(c2cccc(N(Cc3ccc(C(=O)NO)cc3)C(=O)N3CCOCC3)c2)CC1', 2),
  ('O=C(NO)c1ccc(CN(C(=O)N2CCOCC2)c2cccc(F)c2F)cc1', 1.1),
  ('O=C(NO)c1ccc(CN(C(=O)N2CCOCC2)c2ccc(Cl)c(C(F)(F)F)c2)cc1', 3),
  ('O=C(NO)c1ccc(CN(C(=O)N2CCOCC2)c2cccc(C3CCNCC3)c2)cc1 [Compound 493, hydrochloride]', 11);

(A) Cc1ccc(N(Cc2ccc(C(=O)NO)cc2)C(=O)N2CCOCC2)c(F)c1
(B) C[C@@H]1CN(C(=O)N(Cc2ccc(C(=O)NO)cc2)c2cccc(C(F)(F)F)c2)C[C@H](C)N1CC(F)(F)C(F)(F)F
(C) O=C(NO)c1ccc(CN(C(=O)N2CCN(CC3(F)CCOCC3)CC2)c2cccc(C(F)(F)F)c2)cc1
(D) COc1ccccc1N1CCN(C(=O)N(Cc2ccc(C(=O)NO)cc2)c2ccccn2)CC1
Query: Which order do these items take when sorted by rising IC50? List them. Answer format: list of labels, ordered as asked.
Result: A, D, C, B
(A: 2 nM, D: 4 nM, C: 6.4 nM, B: 213 nM)

(A) Cc1cccc(C)c1-c1cccc(N(Cc2ccc(C(=O)NO)cc2)C(=O)N2CCOCC2)c1
(B) O=C(NO)c1ccc(CN(C(=O)N2CCOCC2)c2cccnc2)cc1
(C) CCN1CCN(C(=O)N(Cc2ccc(C(=O)NO)cc2)c2cccc(C(F)(F)F)c2)CC1
Query: Which order do these items take when sorted by rising IC50? List them. Answer format: list of labels, ordered as asked.
Result: C, A, B

(P) O=C(NO)c1ccc(CN(C(=O)N2CC(F)(F)C2)c2ccc(C(F)(F)F)cc2)cc1
(Q) CC1CN(C(=O)N(Cc2ccc(C(=O)NO)cc2)c2ccccc2OC(F)(F)F)CC(C)O1 (stereo not shown)
(R) CC(=O)N1CC=C(c2cccc(N(Cc3ccc(C(=O)NO)cc3)C(=O)N3CCOCC3)c2)CC1
(S) CCN1CCN(C(=O)N(Cc2ccc(C(=O)NO)cc2)c2cccc(CF)c2)CC1
Query: Order field: IC50 | Direction: descending (largest first) Answer format: list of labels, ordered as asked.
Result: Q, P, R, S

(a) CS(=O)(=O)N1CCC(c2cccc(N(Cc3ccc(C(=O)NO)cc3)C(=O)N3CCOCC3)c2)CC1
(b) Cc1ccc(N(Cc2ccc(C(=O)NO)cc2)C(=O)N2CCCCC2)c(F)c1
(c) O=C(NO)c1ccc(CN(C(=O)N2CCCOCC2)c2ccc(C(F)(F)F)cc2)cc1
(d) O=C(NO)c1ccc(CN(C(=O)N2CCOCC2)c2cccc(C(F)(F)F)c2)c(F)c1
Query: Order field: IC50 | Direction: descending (largest first) Answer format: list of labels, ordered as asked.
Result: c, a, b, d

(I) CN1CCN(C(=O)N(Cc2ccc(C(=O)NO)cc2)c2ccc(Cl)c(C(F)(F)F)c2)CC1
(II) O=C(NO)c1ccc(CN(C(=O)N2CC[C@H](F)C2)c2cccc(C(F)(F)F)n2)cc1
(III) O=C(NO)c1ccc(CN(C(=O)N2CCOCC2)c2cccc(-c3cccnc3)c2)cc1
Query: Order field: IC50 | Direction: descending (largest first) Answer format: list of labels, ordered as asked.
Result: II, I, III
(II: 8.2 nM, I: 5 nM, III: 1 nM)

(I) O=C(NO)c1ccc(CN(C(=O)N2CCOCC2)c2cccc(Br)c2)c(F)c1
(II) CC1CN(C(=O)N(Cc2ccc(C(=O)NO)cc2)c2cccc(-c3ccc4c(c3)OCO4)c2)CC(C)O1 (stereo not shown)
(III) O=C(NO)c1ccc(CN(C(=O)N2CCN(Cc3ccccc3)CC2)c2ncccn2)cc1
(IV) O=C(NO)c1ccc(CN(C(=O)N2CCCCC2)c2ccc(Cl)c(C(F)(F)F)c2)cc1
Query: Which order do these items take when sorted by rising IC50? List them. Answer format: list of labels, ordered as asked.
Result: III, I, II, IV
